Target: T1, human iRhom2 (inactive rhomboid protein 2, isoform 1), endogenously expressed on human cells (human, UniProt Q6PJF5 1-856)
T1 sequence: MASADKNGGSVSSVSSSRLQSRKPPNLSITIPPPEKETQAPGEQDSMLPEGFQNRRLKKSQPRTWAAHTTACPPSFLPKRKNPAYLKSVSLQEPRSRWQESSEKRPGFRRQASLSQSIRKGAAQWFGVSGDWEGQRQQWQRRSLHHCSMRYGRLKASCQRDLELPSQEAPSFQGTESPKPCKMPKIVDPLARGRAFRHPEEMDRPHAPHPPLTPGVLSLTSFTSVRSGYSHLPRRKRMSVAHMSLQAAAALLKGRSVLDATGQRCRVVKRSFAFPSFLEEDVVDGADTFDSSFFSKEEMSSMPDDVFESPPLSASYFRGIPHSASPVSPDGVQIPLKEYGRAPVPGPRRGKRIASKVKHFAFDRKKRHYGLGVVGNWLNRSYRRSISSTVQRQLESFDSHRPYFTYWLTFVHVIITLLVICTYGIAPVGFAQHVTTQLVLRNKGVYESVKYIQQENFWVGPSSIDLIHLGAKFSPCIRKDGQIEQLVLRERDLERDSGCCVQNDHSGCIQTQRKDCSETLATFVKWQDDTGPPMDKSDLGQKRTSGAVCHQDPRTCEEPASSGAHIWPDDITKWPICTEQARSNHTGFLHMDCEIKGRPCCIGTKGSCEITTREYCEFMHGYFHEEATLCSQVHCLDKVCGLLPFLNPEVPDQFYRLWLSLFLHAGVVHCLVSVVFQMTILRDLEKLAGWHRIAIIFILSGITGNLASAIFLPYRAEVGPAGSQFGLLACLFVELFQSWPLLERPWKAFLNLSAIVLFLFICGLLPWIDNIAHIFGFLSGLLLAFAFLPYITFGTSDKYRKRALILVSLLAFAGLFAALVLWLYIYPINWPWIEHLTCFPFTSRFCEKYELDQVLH
Experiment: cell-based or functional assay
value.type: inhibition of PMA-induced release of IL-6R from U-937 cells, 3 µg/ml

binder	reported.measurement
chimeric version of antibody 22 (antibody, V domains shown) VH: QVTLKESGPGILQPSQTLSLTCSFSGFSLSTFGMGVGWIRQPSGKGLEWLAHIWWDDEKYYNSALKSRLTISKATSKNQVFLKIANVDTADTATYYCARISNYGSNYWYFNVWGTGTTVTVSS VL: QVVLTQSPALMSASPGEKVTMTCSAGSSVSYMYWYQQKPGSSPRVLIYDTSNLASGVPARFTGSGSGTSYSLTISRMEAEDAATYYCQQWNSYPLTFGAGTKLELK	85.6 % inhibition

Cited source: patent US20240174744A1
